- System: HepG2
- Experiment Summary: Cytotoxicity against human HepG2 cells assessed as growth inhibition at 100 uM after 24 to 48 hrs by MTT assay relative to control
- Assay type: functional
- Study Conditions: read-out: GI
The compounds listed here are annotated with their inhibition of growth at 100 µM.

[in] Identify inhibition of growth at 100 µM associated with the compound O=S(=O)(c1ccc(F)cc1F)N(c1ccccc1)c1ccnc2ccc(-c3ccc(O)cc3)cc12
[out] 90%

[in] // Input: O=S(=O)(c1ccc(Br)cc1)N(c1ccccc1)c1ccnc2ccc(-c3ccc(O)cc3)cc12 . Output its inhibition of growth at 100 µM only.
[out] 80%

[in] Supply measured inhibition of growth at 100 µM of N#Cc1ccc(S(=O)(=O)N(c2ccccc2)c2ccnc3ccc(-c4ccc(O)cc4)cc23)cc1 in your reply.
[out] 34%

[in] Give the measured inhibition of growth at 100 µM for Cc1c(C)c(C)c(S(=O)(=O)N(c2ccccc2)c2ccnc3ccc(-c4ccc(O)cc4)cc23)c(C)c1C
[out] 10%

====

- System: HepG2
- Experiment Summary: Cytotoxicity against human HepG2 cells assessed as growth inhibition at 100 uM after 24 to 48 hrs by MTT assay relative to control
- Assay type: functional
- Study Conditions: read-out: GI
Entry class follows inhibition of growth at 100 µM: low bracket = under 80%, middle bracket = from 80% up to 90%, high bracket = 90% and over

Worked examples follow.
[[record]]
molecule = "O=[N+]([O-])c1ccc(S(=O)(=O)N(c2ccccc2)c2ccnc3ccc(-c4ccc(O)cc4)cc23)cc1"
tested_system = "HepG2"
group = "middle bracket"

[[record]]
molecule = "CC(C)(C)c1ccc(S(=O)(=O)N(c2ccccc2)c2ccnc3ccc(-c4ccc(O)cc4)cc23)cc1"
tested_system = "HepG2"
group = "high bracket"

[[record]]
molecule = "Cc1ccc(S(=O)(=O)N(c2ccccc2)c2ccnc3ccc(-c4ccc(O)cc4)cc23)cc1"
tested_system = "HepG2"
group = "high bracket"

[[record]]
molecule = "O=[N+]([O-])c1cc(S(=O)(=O)N(c2ccccc2)c2ccnc3ccc(-c4ccc(O)cc4)cc23)ccc1C(F)(F)F"
tested_system = "HepG2"
group = "low bracket"

[[record]]
molecule = "CC(=O)Nc1ccc(S(=O)(=O)N(c2ccccc2)c2ccnc3ccc(-c4ccc(O)cc4)cc23)cc1"
tested_system = "HepG2"
group = "middle bracket"


[in] Category of Nc1ccc(S(=O)(=O)N(c2ccccc2)c2ccnc3ccc(-c4ccc(O)cc4)cc23)cc1 , please.
[out] low bracket

[in] Tag the class for COc1ccc(-c2ccc3nccc(Nc4ccccc4)c3c2)cc1
[out] low bracket

[in] Which band does O=C(c1ccccc1F)N(c1ccccc1)c1ccnc2ccc(-c3ccc(O)cc3)cc12 fall in?
[out] middle bracket

[in] Each compound maps to one class by inhibition of growth at 100 µM. Which class for O=S(=O)(c1ccc(F)cc1)N(c1ccccc1)c1ccnc2ccc(-c3ccc(O)cc3)cc12 ?
[out] low bracket

[in] // return the class label for COc1ccc(S(=O)(=O)N(c2ccccc2)c2ccnc3ccc(-c4ccc(O)cc4)cc23)cc1
[out] middle bracket

[in] Band assignment needed for Oc1ccc(-c2ccc3nccc(Nc4ccccc4)c3c2)cc1 please.
[out] middle bracket

====

- System: HL-60
- Experiment Summary: cells
- Study Conditions: Homo sapiens, HL-60, 48 h
- Description: Cytotoxicity against human HL60 cells assessed as inhibition of cell proliferation after 48 hrs by MTT assay
pIC50: −log10 of the molar value.
This listing pairs compounds with measured pIC50.

[[record]]
molecule = "Cc1ccc(S(=O)(=O)N(c2ccccc2)c2ccnc3ccc(-c4ccc(O)cc4)cc23)cc1"
observed_value = "> 5.00"

[[record]]
molecule = "Nc1ccc(S(=O)(=O)N(c2ccccc2)c2ccnc3ccc(-c4ccc(O)cc4)cc23)cc1"
observed_value = 5.30


[in] State its pIC50 for this compound: O=[N+]([O-])c1cc(S(=O)(=O)N(c2ccccc2)c2ccnc3ccc(-c4ccc(O)cc4)cc23)ccc1C(F)(F)F
[out] > 5.00

[in] Provide measured pIC50 value, entry: O=S(=O)(c1ccc2c(c1)OCCO2)N(c1ccccc1)c1ccnc2ccc(-c3ccc(O)cc3)cc12
[out] > 5.00

[in] Item Oc1ccc(-c2ccc3nccc(Nc4ccccc4)c3c2)cc1 : provide pIC50
[out] 4.85

[in] For CC(C)(C)c1ccc(S(=O)(=O)N(c2ccccc2)c2ccnc3ccc(-c4ccc(O)cc4)cc23)cc1 , write its pIC50.
[out] > 5.00

[in] Item O=S(=O)(c1ccc(F)cc1)N(c1ccccc1)c1ccnc2ccc(-c3ccc(O)cc3)cc12 : provide pIC50
[out] 4.55
